B1: HDV Ribozyme (parent)
chain: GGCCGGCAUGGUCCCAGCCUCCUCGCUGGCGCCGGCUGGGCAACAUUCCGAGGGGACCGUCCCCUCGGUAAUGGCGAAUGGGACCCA

Variants of: B1
Test: self-cleavage, relative activity (ratio to wild type); higher = more cleavage; co-transcriptional
Threshold check on self-cleavage: at or above 0.2 gives label 1, strictly below gives label 0.

The following variants have reported results that may help.
| Mutation String | Class Label |
| --- | --- |
| C63A A78G | label 1 |
| A43U A71U | label 1 |
| G54C C85A | label 1 |
| C7A G40C | label 0 |
| G2A A77U | label 0 |

Decide: self-cleavage of C4A G68C >= 0.2?
label 0

Decide: self-cleavage of A42G C63A >= 0.2?
label 1

Decide: self-cleavage of G1U U9A >= 0.2?
label 1

Decide: self-cleavage of U12A G17U >= 0.2?
label 0

Decide: self-cleavage of A83C C85A >= 0.2?
label 1

Decide: self-cleavage of G2U A70C >= 0.2?
label 0

Decide: self-cleavage of C63U U72G >= 0.2?
label 1

Decide: self-cleavage of G55U A83U >= 0.2?
label 1

Decide: self-cleavage of G35A C86G >= 0.2?
label 1

Decide: self-cleavage of U69A G76A >= 0.2?
label 1

Decide: self-cleavage of G31U C32U >= 0.2?
label 0

Decide: self-cleavage of C26G G68U >= 0.2?
label 1

Decide: self-cleavage of A16C U79G >= 0.2?
label 1

Decide: self-cleavage of G38U C86U >= 0.2?
label 1

Decide: self-cleavage of C48U A51C >= 0.2?
label 1
